# Test system: F1*sub RNA substrate (template-directed ligation)
# TEST PROTOCOL: fraction ligated after 30 min (ligated reads / total reads); higher = more ligase activity; sequences stand for … in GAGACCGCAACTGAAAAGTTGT…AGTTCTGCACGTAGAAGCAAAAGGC
# RECORDED CONDITIONS: 42 °C
PROPERTY LABEL: fraction ligated

# SEQUENCE CHAIN, ASSAYED TARGET, VALUE
rows = [
    ("ACACTGTCGTAAGACACTTTGGATGGGTTGA [3d27]", "F1*sub RNA substrate (template-directed ligation)", 0.238),
    ("TATCCTTGTCGAAGACACTTTGGATGGTTGA [3d1039]", "F1*sub RNA substrate (template-directed ligation)", 0.0395),
    ("TACACTTTCGTAAGAACTTTGGATGGGTTGA [3d591]", "F1*sub RNA substrate (template-directed ligation)", 0.0829),
    ("TACACTTGTCGTAAGAACTTGGATGGGTTGA [3d693]", "F1*sub RNA substrate (template-directed ligation)", 0.00498),
    ("TTCACTTGTCGTAAACCTTTGGATGGGTTGA [3d443]", "F1*sub RNA substrate (template-directed ligation)", 0.514),
]

###

# Test system: F1*sub RNA substrate (template-directed ligation)
# TEST PROTOCOL: fraction ligated after 30 min (ligated reads / total reads); higher = more ligase activity; sequences stand for … in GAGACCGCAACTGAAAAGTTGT…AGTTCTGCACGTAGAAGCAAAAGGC
# RECORDED CONDITIONS: 42 °C
Kindly return condition met if reported fraction ligated is no lower than 0.5; return condition not met if it is lower.

# SEQUENCE CHAIN, CLASSIFICATION
data = [
    ("TATCACTTTCGTAAGACCTTGGATGGGTTGA [3d1547]", "condition met"),
    ("TATCACTTGTCTAAACACTTTGGATGGGTTA [3d1844]", "condition met"),
    ("TTCACTGTCGTAAGACATTTGGATGGGTTGA [3d347]", "condition met"),
    ("TATCACTGTCGTAAGACATTTGGAGGGTTGA [3d1436]", "condition not met"),
    ("TATCACTTGCTAAGACACTTTGGATGGGTTA [3d1611]", "condition met"),
    ("TATACTTTCGTAAGACACTTTGATGGGTTGA [3d806]", "condition not met"),
    ("TATCACTTGTCGAAGCATTTGGATGGGTTGA [3d1927]", "condition met"),
    ("TATCACTTGTCGTAAGACACTGGATGGGTTA [3d2236]", "condition met"),
    ("TATCACTTGTGTAAACACTTGGATGGGTTGA [3d1747]", "condition met"),
    ("TTCACTTGTCGTGACACTTTGGATGGGTTGA [3d429]", "condition not met"),
    ("TTCACTTGTCGTAAGCACTTTGGAGGGTTGA [3d458]", "condition not met"),
    ("TATCACTTGTGTAGACATTTGGATGGGTTGA [3d1736]", "condition met"),
    ("TATCATTGTCGTAAGACACTTTGGAGGGTTG [3d1288]", "condition not met"),
    ("TATCACTTGCGTAAGACACTTTGGAGGGTTA [3d1699]", "condition not met"),
    ("TATACTTTCGTAAGCACTTTGGATGGGTTGA [3d801]", "condition met"),
    ("TATCATTGTCGTAAGCACTTGGATGGGTTGA [3d1240]", "condition met"),
    ("TATCCTGTCGAAGACACTTTGGATGGGTTGA [3d954]", "condition met"),
]
